Sourced from ChEMBL document CHEMBL3864190

assay: Drug metabolism in mouse liver microsomes assessed as compound oxidation by measuring parent compound remaining at 1 uM after 30 mins in presence of NADPH by LC-MS/MS analysis; format: ADME; details: liver microsomes, read-out: Stability
Quantity Measured: remaining at 0.5 h, 1 µM (%)
A number alone suffices; assume %.

remaining at 0.5 h, 1 µM for Nc1ncnc2c1c(-c1cc(O)c(F)c(F)c1)nn2C1Cc2ccccc2C1 is 78

So, COc1ccc(-c2nn(C3Cc4ccccc4C3)c3ncnc(N)c23)cc1O ? Its remaining at 0.5 h, 1 µM was 14

Note to self: remaining at 0.5 h, 1 µM recorded for Nc1ncnc2c1c(-c1cc(O)cc(F)c1)nn2C1Cc2ccccc2C1 was 25

Lab note: measured remaining at 0.5 h, 1 µM of Nc1ncnc2c1c(-c1ccc(Br)c(O)c1)nn2C1Cc2ccccc2C1 was 53

---

Provide the recorded inhibition for the entries that follow.
target: Phosphatidylinositol 4,5-bisphosphate 3-kinase catalytic subunit delta isoform (Homo sapiens) (UniProt O00329); assay: Inhibition of PI3Kdelta (unknown origin) using biotinylated PIP2 as substrate at 100 nM in presence of streptavidin-APC by FRET assay
Sequence (O00329 whole entry, canonical isoform): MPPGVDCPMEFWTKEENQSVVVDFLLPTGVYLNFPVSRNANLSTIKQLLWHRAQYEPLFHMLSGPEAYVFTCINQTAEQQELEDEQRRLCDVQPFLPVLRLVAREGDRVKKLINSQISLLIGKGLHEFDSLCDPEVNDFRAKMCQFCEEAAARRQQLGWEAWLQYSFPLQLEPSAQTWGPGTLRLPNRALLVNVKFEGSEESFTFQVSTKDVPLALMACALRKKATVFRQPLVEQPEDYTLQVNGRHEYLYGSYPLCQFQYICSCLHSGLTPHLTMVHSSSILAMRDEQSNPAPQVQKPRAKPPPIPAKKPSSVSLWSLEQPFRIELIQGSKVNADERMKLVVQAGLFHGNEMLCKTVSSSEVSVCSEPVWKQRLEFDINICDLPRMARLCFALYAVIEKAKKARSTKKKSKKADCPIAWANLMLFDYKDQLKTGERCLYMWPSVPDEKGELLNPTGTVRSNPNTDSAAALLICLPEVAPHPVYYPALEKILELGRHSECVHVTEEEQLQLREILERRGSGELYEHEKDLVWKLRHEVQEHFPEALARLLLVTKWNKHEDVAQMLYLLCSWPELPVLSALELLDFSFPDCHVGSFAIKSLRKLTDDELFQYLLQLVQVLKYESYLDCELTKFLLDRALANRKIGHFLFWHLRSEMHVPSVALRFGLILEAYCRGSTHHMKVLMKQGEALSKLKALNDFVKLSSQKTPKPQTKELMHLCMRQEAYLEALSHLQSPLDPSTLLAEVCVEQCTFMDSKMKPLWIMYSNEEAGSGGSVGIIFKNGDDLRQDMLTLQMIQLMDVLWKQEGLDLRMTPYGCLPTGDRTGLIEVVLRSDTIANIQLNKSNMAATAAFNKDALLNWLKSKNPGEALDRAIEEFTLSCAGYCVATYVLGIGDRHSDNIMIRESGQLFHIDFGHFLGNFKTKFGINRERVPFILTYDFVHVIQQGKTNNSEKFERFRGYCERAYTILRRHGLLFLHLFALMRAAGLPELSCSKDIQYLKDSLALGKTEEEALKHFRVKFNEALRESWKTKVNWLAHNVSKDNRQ
Express it in %; write the number only.

Lookup result for Nc1ncnc2c1c(-c1ccc3c(c1)NCCO3)nn2C1Cc2ccccc2C1 ; measured inhibition: 40

Entry under test: Nc1ncnc2c1c(-c1cc(F)c(F)c(F)c1)nn2C1Cc2ccccc2C1 . Its inhibition was 21

Input Nc1ncnc2c1c(-c1cc(F)c3c(c1)NCCO3)nn2C1CCc2ccccc2C1 (racemic) . Output inhibition: 52

Noted for Nc1ncnc2c1c(-c1cc(O)c(F)c(F)c1)nn2C1Cc2ccccc2C1 : its inhibition reads 87

# inhibition of COc1ccc(-c2nn(C3Cc4ccccc4C3)c3ncnc(N)c23)cc1N = 14

compound Nc1ncnc2c1c(-c1cc(F)c3c(c1)NCCO3)nn2C1Cc2cc(F)ccc2C1=O (racemic) , inhibition observed: 26

In plain terms, Nc1ncnc2c1c(-c1ccc3nc[nH]c3c1)nn2C1Cc2ccccc2C1 has a documented inhibition of 78

Measured inhibition of Nc1ncnc2c1c(-c1cc(F)c3c(c1)NCCO3)nn2C1Cc2ccccc2C1 : 53

Looking up Nc1ncnc2c1c(-c1cccc(O)c1)nn2C1Cc2ccccc2C1 , I see its inhibition listed as 41

Record summary for Nc1cc(-c2nn(C3Cc4ccccc4C3)c3ncnc(N)c23)ccc1F : reported inhibition = 8.2

Value of inhibition reported for the compound Nc1ncnc2c1c(-c1ccc3cc[nH]c3c1)nn2C1Cc2ccccc2C1 is 24

So, Nc1cc(-c2nn(C3Cc4ccccc4C3)c3ncnc(N)c23)cc(F)c1F ? Its inhibition was 26

---

Answer each item with its documented remaining at 0.5 h, 5 µM.
test: Drug metabolism in mouse liver microsomes assessed as UGT-mediated compound glucuronidation by measuring parent compound remaining at 5 uM after 30 mins in presence of UDPGA by LC-MS/MS analysis; assay type: ADME; conditions: liver microsomes, read-out: Stability
Use % as the unit, but write only the number.

Recorded remaining at 0.5 h, 5 µM (compound Nc1ncnc2c1c(-c1ccc3[nH]cnc3c1)nn2C1Cc2ccccc2C1 ): 90

Please fill in: remaining at 0.5 h, 5 µM reported for Nc1ncnc2c1c(-c1ccc3c(c1)NCCO3)nn2C1Cc2ccccc2C1 = 98

The reported remaining at 0.5 h, 5 µM of the compound Nc1ncnc2c1c(-c1cc(F)c3c(c1)NCCO3)nn2C1Cc2ccccc2C1 was 91

remaining at 0.5 h, 5 µM in this record for Nc1ncnc2c1c(-c1cc(F)c(F)c(F)c1)nn2C1Cc2ccccc2C1 : 85
